Recorded inhibition by entry
# Tested on: Tyrosine-protein kinase ABL1 (Homo sapiens), P00519 [E255K]
# Sequence (P00519 whole entry E255K): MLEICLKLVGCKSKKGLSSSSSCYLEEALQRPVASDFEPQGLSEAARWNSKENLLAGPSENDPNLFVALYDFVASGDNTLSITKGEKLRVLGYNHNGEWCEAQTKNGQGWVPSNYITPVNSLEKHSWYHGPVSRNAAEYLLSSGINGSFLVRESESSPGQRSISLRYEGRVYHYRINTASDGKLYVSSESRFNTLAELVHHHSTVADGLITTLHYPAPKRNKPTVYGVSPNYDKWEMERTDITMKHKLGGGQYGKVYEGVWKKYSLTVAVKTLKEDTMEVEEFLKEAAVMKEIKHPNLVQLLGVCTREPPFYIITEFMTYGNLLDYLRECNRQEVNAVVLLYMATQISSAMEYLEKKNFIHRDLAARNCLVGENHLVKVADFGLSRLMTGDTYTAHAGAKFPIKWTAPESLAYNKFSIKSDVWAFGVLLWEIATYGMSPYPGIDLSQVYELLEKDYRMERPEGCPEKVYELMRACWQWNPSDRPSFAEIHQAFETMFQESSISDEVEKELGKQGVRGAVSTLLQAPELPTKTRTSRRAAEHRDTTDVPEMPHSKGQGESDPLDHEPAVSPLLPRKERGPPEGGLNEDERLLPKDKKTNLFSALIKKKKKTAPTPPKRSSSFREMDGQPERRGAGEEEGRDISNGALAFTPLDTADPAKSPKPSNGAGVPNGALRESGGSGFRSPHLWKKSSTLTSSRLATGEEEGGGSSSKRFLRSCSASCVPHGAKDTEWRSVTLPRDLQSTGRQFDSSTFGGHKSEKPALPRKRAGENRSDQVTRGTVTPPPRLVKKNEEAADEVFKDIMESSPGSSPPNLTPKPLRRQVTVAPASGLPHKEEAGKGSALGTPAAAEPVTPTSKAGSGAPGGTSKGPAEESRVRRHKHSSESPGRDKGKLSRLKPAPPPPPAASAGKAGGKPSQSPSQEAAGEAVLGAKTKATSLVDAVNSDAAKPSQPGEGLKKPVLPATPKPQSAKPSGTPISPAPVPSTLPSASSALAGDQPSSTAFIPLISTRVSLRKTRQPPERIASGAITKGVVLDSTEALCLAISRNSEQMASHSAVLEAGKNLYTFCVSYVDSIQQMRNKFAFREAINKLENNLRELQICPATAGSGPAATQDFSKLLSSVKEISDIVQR
# condition-notes: at 1 µM
# value in %; strip the unit string

INSERT INTO results (compound, value_observed) VALUES
  ('CS(=O)(=O)CCN(CC#N)Cc1ccc(-c2ccc3ncnc(Nc4ccc(OCc5cccc(F)c5)c(Cl)c4)c3c2)o1', 1);

Name the recorded inhibition for CC1=C(C(=O)Nc2ccc3[nH]ncc3c2)C(c2ccc3ccccc3c2)CC(=O)N1 (stereo not given) .
3.94

Can you handle CCn1c(-c2nonc2N)nc2c(N3CCCC3)nccc21 next?
-0.63

Can you handle CCn1c(-c2nonc2N)nc2c(C#CC(C)(C)O)nc(OC[C@@H](N)c3ccccc3)cc21 next?
1.65

Can you handle NC(=O)c1cccc(Nc2nccc(Nc3cccc4[nH]ncc34)n2)c1 next?
95.5

Can you handle Cn1cc(C=C2C(=O)Nc3cccnc32)c2ccccc21 next?
28.1

Can you handle CC(=O)Nc1cccc(C#Cc2cncnc2Nc2ccc(OCc3cccc(F)c3)c(Cl)c2)n1 next?
-0.48

Can you handle Cc1nnc(-c2ccc(C)c(-c3ccc(C(=O)Nc4cccc(C#N)c4)cc3)c2)o1 next?
4.21

Can you handle CCN1CCC(CC(=O)Nc2n[nH]c3nc(-c4cccs4)c(Br)cc23)CC1 next?
2.21

Can you handle COc1ccc(-c2ccncc2)cc1C(N)=O next?
3.56
